# experimental-system: T1, full-length beta-Catenin (Uniprot ID P35222) (Homo sapiens (Human), UniProt P35222 2-781)
# T1 construct: the AlphaScreen assay uses a Histidine (Nickel Chelate) detection kit, so a His tag is likely there; also called B-Catenin; bCat
# T1 sequence: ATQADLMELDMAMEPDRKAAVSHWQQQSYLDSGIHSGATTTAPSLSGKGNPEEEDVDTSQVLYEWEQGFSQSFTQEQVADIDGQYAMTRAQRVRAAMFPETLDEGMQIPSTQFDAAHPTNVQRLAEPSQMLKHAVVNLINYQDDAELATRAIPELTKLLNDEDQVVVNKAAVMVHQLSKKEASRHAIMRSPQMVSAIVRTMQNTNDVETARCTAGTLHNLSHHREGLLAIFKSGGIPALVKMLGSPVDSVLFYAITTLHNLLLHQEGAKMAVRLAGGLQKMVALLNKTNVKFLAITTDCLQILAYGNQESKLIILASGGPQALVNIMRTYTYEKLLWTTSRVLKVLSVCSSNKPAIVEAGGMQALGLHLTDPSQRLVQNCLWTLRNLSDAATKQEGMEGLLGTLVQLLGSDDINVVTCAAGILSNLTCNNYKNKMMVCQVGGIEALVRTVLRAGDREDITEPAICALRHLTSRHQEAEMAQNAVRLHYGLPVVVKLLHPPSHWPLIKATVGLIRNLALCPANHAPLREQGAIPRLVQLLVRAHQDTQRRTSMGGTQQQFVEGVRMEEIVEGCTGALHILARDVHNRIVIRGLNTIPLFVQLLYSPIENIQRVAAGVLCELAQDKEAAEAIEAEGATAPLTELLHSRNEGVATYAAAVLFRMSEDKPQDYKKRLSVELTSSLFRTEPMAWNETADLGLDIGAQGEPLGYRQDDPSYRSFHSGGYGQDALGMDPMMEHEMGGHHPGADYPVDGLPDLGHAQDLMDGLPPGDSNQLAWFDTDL
# procedure-text: AlphaScreen competition; full-length beta-catenin with biotin-TCF4(10-53) probe as competitor
Starred links: 1 amine or outer side, 2 acyl side, 3 side chain; linkers in the order of their positions; H or OH if unused. Positions of bridges follow the written chain, without caps; N, C: chain ends. Non-standard residues stand in square brackets, D forms with d. Primed or numbered codes have the meaning given here. B5(16) = 2-amino-2-(pent-4-en-1-yl)hept-6-enoic acid = 2,2-bis(4-pentenyl)glycine (stitching residue), C=CCCCC(CCCC=C)(N[*:1])C(=O)[*:2]; B5(4) = 2,2-bis(4-pentenyl)glycine = 2-amino-2-(pent-4-en-1-yl)hept-6-enoic acid (stitching residue), C=CCCCC(CCCC=C)(N[*:1])C(=O)[*:2]; B5(5) = 2,2-bis(4-pentenyl)glycine, 2-amino-2-(pent-4-en-1-yl)hept-6-enoic acid (stitching residue), C=CCCCC(CCCC=C)(N[*:1])C(=O)[*:2]; Qui = (S)-2-amino-3-(quinolin-2-yl)propanoic acid, O=C([C@H](Cc1ccc2ccccc2n1)N[*:1])[*:2]; Trp(7-F) = N[C@@H](Cc1c[nH]c2c(F)cccc12)C(=O)O; Bta = N[C@@H](Cc1csc2ccccc12)C(=O)O; αAllylPro = C=CC[C@@]1(C(=O)O)CCCN1; S8 = C=CCCCCCC[C@](C)(N)C(=O)O
Below, each entry is listed with its recorded pEC50.
// pEC50 is dimensionless: -log10 of concentration (M)

# binder, pEC50
measured = [
    ("Ac-[αAllylPro]DA[B5(4)]DEAAFV[S8]F[Qui]Q-NH2 (staple 1-4, 4-11, stapled peptide composition) [I-143]", 6.13),
    ("Ac-[αAllylPro]DA[B5(16)]DEAAFV[S8]F[Trp(7-F)]Q-NH2 (staple 1-4, 4-11, stapled peptide composition) [I-166]", 7.06),
    ("ADIXDEAAFAXFWA (not fully specified; as printed: Ac-Ala-Asp-Ile-RdN-Asp-Glu-Ala-Ala-Phe-Ala-S7-Phe-Trp-Ala-NH2; N-terminal acetyl, C-terminal amide; RdN(4), S7(11); staple RdN-S7 by olefin metathesis, stapled peptide) [I-154]", 6.08),
    ("Ac-[αAllylPro]DI[B5(5)]DDAAFQ[S8]FWH-NH2 (staple 1-4, 4-11, stapled peptide) [I-174]", 6.94),
]

Please look at the following binder next.
Request the reported pEC50 associated with Ac-[αAllylPro]DA[B5(4)]DEAAFV[S8]F[Bta]Q-NH2 (staple 1-4, 4-11, stapled peptide composition) [I-144]
7.18
